System: A498 renal
Assay: NCI-60 one-dose screen, 48 h
Conditions: 10 µM unless noted
About 83,000 compounds went through this panel and 20% of them were active in at least one assay; those are over-represented in the sample as a whole. Calls of active or inactive are those of the source. How the source made its calls: active means growth percent below 10; inactive means the rest.
Parameter call: string, one of active, inactive

Example cases with answers are listed next.
{"columns": ["compound", "categoryLabel"],
 "data": [
  ["c1ccc2c(c1)CCN(NCCN1CCCC1)C2", "inactive"],
  ["Cc1cc2c(-c3nc4ccccn4c3N)c(O)c(O)cc2c(O)c1-c1c(C)cc2c(-c3nc4ccccn4c3N)c(O)c(O)cc2c1O", "active"],
  ["CCOC(=O)Sc1ncnc2nc[nH]c12", "inactive"],
  ["Cc1cc(C2(c3ccc(O)c(C)c3)OS(=O)(=O)c3ccccc32)ccc1O", "inactive"],
  ["N#Cc1ccc(-n2nnc3ccccc32)cc1C#N", "inactive"]
]}

Record lookup: outcome of this test for COCc1c(-c2ccc(NC(=O)Nc3cc(C(F)(F)F)ccc3F)c(F)c2)c2c(N)ncnn2c1CN1CCOCC1 ?
active

###

System: UACC-62 melanoma
Experiment: NCI-60 one-dose screen, 48 h
Conditions: 10 µM unless noted
The panel holds about 83,000 compounds, 20% with a hit somewhere; the sample as a whole holds those more often. The source made the active and inactive calls. How the source made its calls: active means growth percent below 10; inactive means the rest.
Permitted responses: active, inactive

Assay outcome for FC(F)(F)c1ccc(CNc2ccc(Cc3c[nH]c4ncc(Cl)cc34)cn2)cn1 : what was it?
active

###

System: NCI-H460 lung
Test: NCI-60 one-dose screen, 48 h
Conditions: 10 µM unless noted
Experimental: Growth inhibition of the NCI-H460 human Non-Small Cell Lung tumor cell line is measured as a screen for anti-cancer activity. Cells are grown in 96 well plates and exposed to the test compound for 48 hours. Compounds are tested at a single concentration, which is 10^-5 M for most compounds. The reported endpoint is percent growth (GI% or GIPRCNT), where numbers from 0 - 100% represent growth inhibition, and numbers from -100% - 0 represent cell death. […]
The panel holds about 83,000 compounds, 20% with a hit somewhere; the sample as a whole holds those more often. Active and inactive are the calls of the source. The calls were made as follows: active = growth percent below 10; inactive = the rest.
Valid outcomes are listed here; reply with one: 1 (active), 0 (inactive)

# example entries with known answers
{"columns": ["querySmiles", "assayedSystem", "categoryLabel"],
 "data": [
  ["COc1cc(-c2nc(C(=O)Nc3ccc(C)cc3)nn2-c2ccc(F)c(F)c2)cc(OC)c1OC", "NCI-H460 lung", 0],
  ["N#Cc1c(NC(=O)c2cccs2)[n+]([O-])c2ccc(F)cc2[n+]1[O-]", "NCI-H460 lung", 0]
]}

Short answer needed: outcome of this test for CCCCCCCCCNCCCCCCCCC ?
0

Tell me the recorded outcome of this test for C[C@]12O[C@H](C[C@]1(O)CO)n1c3ccccc3c3c4c(c5c6ccccc6n2c5c31)CNC4=O .
1

Assay result, entry COc1ccc(/C(C)=C(\c2ccc(Cl)cc2)c2ccc(OCCN3CCCCCC3)cc2)cc1 — outcome?
0

###

System: NCI-H226 lung
Assay: NCI-60 one-dose screen, 48 h
Conditions: 10 µM unless noted
This is part of a sample that, as a whole, favours compounds with a hit. Of some 83,000 tested, about 20% had one in any assay. Active and inactive are the calls of the source. How the source made its calls: active means growth percent below 10; inactive means the rest.
Would you mind answering with one of these outcomes? active, inactive

Use these answered entries as a reference point.
{"columns": ["compound", "categoryLabel"],
 "data": [
  ["COc1cc(Nc2c(C#N)cnc3cc(OCCCN4CCN(C)CC4)c(OC)cc23)c(Cl)cc1Cl", "inactive"],
  ["COc1cnc2c(c1)C(=O)c1c-2n(CCCNC2=NCCS2)c(=O)c2cc(Cl)ccc12", "inactive"],
  ["Cc1cc(C(=O)Nc2cc(Oc3ccc4nc(NC(=O)C5CC5)cn4n3)ccc2C)n(C)n1", "inactive"],
  ["Cc1cc(Nc2ncnc3ccc(NC4=NC(C)(C)CO4)cc23)ccc1Oc1ccn2ncnc2c1", "inactive"],
  ["CC(=O)OC1Oc2ccccc2-c2oc(=O)c(-c3cc4ccc(N(C)C)cc4oc3=O)cc21 (stereo not given)", "inactive"]
]}

Recorded test outcome, item CC[C@@H]1C(=O)N(C)c2cnc(Nc3ccc(C(=O)NC4CCN(C)CC4)cc3OC)nc2N1C1CCCC1
inactive

Write down the call the test reported for this compound. Item: O=c1nc2c(-c3nc4ccccc4s3)n[nH]n2c2sc3c(c12)CCCC3
inactive

I'd appreciate the recorded outcome for COc1ncc(-c2ccc3nccc(-c4ccnnc4)c3c2)cc1NS(=O)(=O)c1ccc(F)cc1F from this test.
active

// outcome(item) with item = C=CC(=O)Nc1cc2c(Nc3ccc(F)c(Cl)c3)ncnc2cc1C#CC(C)(C)N1CCN(C)CC1
active

What is the recorded call for this compound in the test? COc1ccc2c(CCC(c3ccccc3)c3ccccc3)c3[n+](cc2c1OC)CCc1cc2c(cc1-3)OCO2
inactive

Look up the recorded call for CC(=O)C1CC(C)CCC1C(C)C (stereo not given) in this test.
inactive

// param item: COc1cc(OC)c(C(=O)/C=C/c2cc3c(cc2OCc2ccccc2)OC(C)(C)CC3)cc1CC=C(C)C ; yields the recorded call
inactive

Field: outcome | Entry: COC(=O)[C@]12CC[C@@H](C)[C@H](C)[C@@H]1C1=CC[C@@H]3[C@@]4(C)C(c5cnco5)=C[C@@](C)(CO)C4=CC[C@@]3(C)[C@]1(C)CC2
inactive

How was CO[C@@H](C(=O)N1Cc2[nH]nc(NC(=O)c3ccc(N4CCN(C)CC4)cc3)c2C1)c1ccccc1 classified in this test?
inactive

What call does the record list for CCN(CC)CCNC(=O)c1c(C)[nH]c(/C=C2\C(=O)Nc3ccc(F)cc32)c1C ?
inactive

// return assay outcome for CC(C)[C@@H](C)/C=C/[C@@H](C)[C@H]1CCC2=C3C=CC4=CC(=O)CC[C@]4(C)[C@H]3CC[C@@]21C
inactive

Each compound tested received a call. Report the one for COc1cc(CCc2cc(NC(=O)c3ccc(N4C[C@@H](C)N[C@@H](C)C4)cc3)n[nH]2)cc(OC)c1 .
inactive

Short answer needed: outcome of this test for COc1cc2ncnc(Oc3cccc(NC(=O)Nc4cc(C(C)(C)C(F)(F)F)on4)c3)c2cc1OC ?
inactive

Would you mind telling me which call this test gave CCCC(=O)OCC1OC(n2cnc3c(=S)nc[nH]c32)C(OC(=O)CCC)C1OC(=O)CCC (stereo not given) ?
inactive

For CC(C)CC(=O)Nc1n[nH]c2c1CN(C(=O)C1CCN(C)CC1)C2(C)C , which call appears in the assay record?
active

Record request — test call for CN(C)C1CCN(C(=O)c2ccc(NC(=O)Nc3ccc(-c4nc(N5CCOCC5)nc(N5CCOCC5)n4)cc3)cc2)CC1
active

What was the test verdict on Cc1ccc(-[n+]2c3cc(N)c(C)cc3nc3cc(C)c(Nc4ccccc4)cc32)cc1 ?
active
